meta.source: PubChem BioAssay (NCI)

growth overview
System: CAKI-1 renal
experiment notes: NCI-60 one-dose screen, 48 h (100 = growth as untreated, 0 = no growth, -100 = all killed)
test parameters: 10 µM unless noted
This is part of a sample that, as a whole, favours compounds with a hit. Of some 83,000 tested, about 20% had one in any assay.

| compound | unit spec | growth |
| --- | --- | --- |
| CCN1CCN(/C(=N\c2sc(-c3ccccc3)nc2-c2ccccc2)c2ccccc2)CC1 | % | 65.3 |
| Nc1ncc(-c2ccc3ncnc(N4CCc5cc(F)c(Cl)cc54)c3c2)cc1CO | % | 2.97 |
| Nc1c(C(=O)c2ccc(Br)cc2)oc2nc(-c3cnccn3)cc(-c3cccs3)c12 | % | 95.2 |
| COc1ccc(-c2csc(N/N=C/c3c(-c4ccc(S(C)(=O)=O)cc4)nc4ccccn34)n2)cc1 | % | 93.4 |
| CCCCCCNC(=O)Oc1ccc(/C(=C(/C)c2ccccc2)c2ccc(OCCN3CCCCCC3)cc2)cc1 | % | 35.9 |
| NC(=O)c1cc(-c2ccc3ncnc(N4CCc5cc(F)c(Cl)cc54)c3c2)cnc1N | % | 19.9 |
| COc1cc(OC)c(C2SCC(=O)N2Nc2ncnc3ccccc23)cc1OC (centres undefined) | % | 94 |
| OC1CCN(CCCOc2c3ccccc3nc3c2oc2ccc(Cl)cc23)CC1 | % | 12.8 |
| CCOC(=O)c1c(Nc2ccccc2)nn2c(N)c(C#N)c(-c3ccccc3)nc12 | % | 72 |

---

System: UACC-62 melanoma
experiment notes: NCI-60 one-dose screen, 48 h
test parameters: 10 µM unless noted
This is part of a sample that, as a whole, favours compounds with a hit. Of some 83,000 tested, about 20% had one in any assay. The source made the active and inactive calls. Rule for the calls: active = growth percent below 10; inactive = the rest.
Outcomes: Y (active), N (inactive)

| compound | experimental system | answer label |
| --- | --- | --- |
| Cc1ccc(C(=O)Nc2cccc(C(F)(F)F)c2)cc1Nc1nc(-c2cnccn2)nc2c1cnn2C | UACC-62 melanoma | N |
| N#Cc1c(-c2ccc(Cl)cc2)nc(SCc2ccc(F)cc2)nc1N1CCNCC1 | UACC-62 melanoma | N |
| CC(C)(O)c1cncc(-c2ccc3ncnc(N4CCc5cc(F)c(Cl)cc54)c3c2)c1 | UACC-62 melanoma | Y |
| COc1ccc(N/N=C/c2c(-c3ccc(S(C)(=O)=O)cc3)nc3ccccn23)cc1 | UACC-62 melanoma | N |
| OC1CCc2c(-c3ccc4ncnc(N5CCc6cc(F)c(Cl)cc65)c4c3)cncc21 (stereo not given) | UACC-62 melanoma | N |
| Cn1c(SCC(=O)c2cccs2)nc2ccccc2c1=O | UACC-62 melanoma | N |
| CC(C)(C)Nc1nc2c(OCCc3ccccc3)cccn2c1-c1ccccc1Cl | UACC-62 melanoma | Y |
| CCCSc1nc(Nc2ccc(/C(C)=N\NC(N)=S)cc2)c(C#N)c(-c2ccc(OC)cc2)n1 | UACC-62 melanoma | N |
| COc1ccc(CNS(=O)(=O)/N=C2\NC(=O)NC2=C(Cl)Cl)cc1 | UACC-62 melanoma | N |
| COc1cc(/C=C/C(=O)c2ccc(Cl)cc2)ccc1Oc1nc(NCCO)nc(N2CCOCC2)n1 | UACC-62 melanoma | N |
| Clc1ccc(-c2cn3cc(Cc4ccc(Cl)c(Cl)c4)sc3n2)cc1 | UACC-62 melanoma | N |
| O=C(N/N=C/c1ccc(Cl)s1)c1[nH]c2ccc(Br)cc2c1-c1ccccc1 | UACC-62 melanoma | N |
| COc1cc(OC)c(S(=O)(=O)NNC(=O)c2ccncc2)cc1C(=O)/C=C/c1ccc(C)cc1 | UACC-62 melanoma | N |
| CS(=O)(=O)c1ccc(-c2nc3ccccn3c2/C=N/Nc2nc(-c3ccc(Br)cc3)cs2)cc1 | UACC-62 melanoma | N |
| O=C1C2=C(C(=O)c3c(O)cccc31)C(c1ccco1)c1sc(=O)[nH]c1S2 (stereo not given) | UACC-62 melanoma | Y |
| Oc1c(Cl)cc(Cl)c2ccc(CN3CCCCC3)nc12 | UACC-62 melanoma | Y |
| O=C(N/N=C/c1ccco1)c1[nH]c2ccc(Br)cc2c1-c1ccccc1 | UACC-62 melanoma | N |
| CCOC(=O)c1sc(N)c(C(=O)OCC)c1C | UACC-62 melanoma | N |
| CO/N=C1\CCc2c(sc(NC(=O)c3cccc(C(F)(F)F)c3)c2C(N)=O)C1 | UACC-62 melanoma | N |
| COC(=O)c1ccc(NC(=S)N2CCc3ccc([N+](=O)[O-])cc3C2)cc1O | UACC-62 melanoma | N |
